assay: Distribution coefficient between 1-octanol and aqueous phosphate buffer, logD of the compound in pH 7.4 buffer; format: physicochemical; details: 1-octanol/aqueous phosphate buffer
Metric: logD
Respond using a number only.

{"Substance Smiles": "CCS(=O)(=O)c1ccc(CC(=O)Nc2cc(-c3cncnc3OC)cs2)cc1", "Number": 2.8}

INPUT: Note down logD recorded for CCS(=O)(=O)c1ccc(CC(=O)Nc2cc(-c3ccc(C#N)cc3Cl)cs2)cc1
OUTPUT: 3.7

* * *

Biological target: Nuclear receptor ROR-gamma (Homo sapiens)
Sequence (P51449 whole entry): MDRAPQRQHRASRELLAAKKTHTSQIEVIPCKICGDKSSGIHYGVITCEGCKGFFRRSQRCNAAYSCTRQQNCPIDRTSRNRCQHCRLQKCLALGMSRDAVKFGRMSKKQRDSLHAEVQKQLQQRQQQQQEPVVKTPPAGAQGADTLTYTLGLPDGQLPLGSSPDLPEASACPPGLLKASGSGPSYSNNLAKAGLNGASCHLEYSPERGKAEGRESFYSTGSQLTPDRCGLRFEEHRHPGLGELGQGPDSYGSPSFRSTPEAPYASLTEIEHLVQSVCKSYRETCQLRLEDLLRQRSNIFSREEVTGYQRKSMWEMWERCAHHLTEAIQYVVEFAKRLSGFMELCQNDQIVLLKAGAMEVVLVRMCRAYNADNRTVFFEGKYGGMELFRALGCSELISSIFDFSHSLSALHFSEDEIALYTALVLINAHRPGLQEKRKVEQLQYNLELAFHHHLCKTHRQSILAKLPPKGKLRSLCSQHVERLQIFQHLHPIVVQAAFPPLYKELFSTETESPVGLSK
Assay: Inverse agonist activity at RORgammat in human TH17 cells assessed as inhibition of IL17 release incubated for 4 days by HTRF assay
Assay type: cell-based
Quick reference: log10(IC50) of the listed items.
Plainly stated, the numbers are log10 of IC50 given in nM.

Consider the worked cases shown below.
{"Molecule": "CCS(=O)(=O)c1ccc(CC(=O)Nc2cc(-c3cc(C#N)cnc3OCC(F)(F)F)cs2)cc1", "Assayed System": "Nuclear receptor ROR-gamma (Homo sapiens)", "log10(IC50)": 1.81}
{"Molecule": "CCS(=O)(=O)c1ccc(CC(=O)Nc2cc(-c3cccnc3OCC(F)(F)F)cs2)cc1", "Assayed System": "Nuclear receptor ROR-gamma (Homo sapiens)", "log10(IC50)": 2.00}
{"Molecule": "CCS(=O)(=O)c1ccc(CC(=O)Nc2cc(-c3cccnc3Oc3ccc(OC(F)(F)F)cc3)cs2)cc1", "Assayed System": "Nuclear receptor ROR-gamma (Homo sapiens)", "log10(IC50)": 2.16}
{"Molecule": "CCS(=O)(=O)c1ccc(CC(=O)Nc2cc(-c3cccnc3OCc3ccc(C#N)cc3)cs2)cc1", "Assayed System": "Nuclear receptor ROR-gamma (Homo sapiens)", "log10(IC50)": 2.00}
{"Molecule": "CCS(=O)(=O)c1ccc(CC(=O)Nc2cc(-c3cccnc3OCc3ccc(OC(F)(F)F)cc3)cs2)cc1", "Assayed System": "Nuclear receptor ROR-gamma (Homo sapiens)", "log10(IC50)": 1.40}
{"Molecule": "CCS(=O)(=O)c1ccc(CC(=O)Nc2cc(-c3cccnc3OCc3ccc(C(=O)OC)cc3)cs2)cc1", "Assayed System": "Nuclear receptor ROR-gamma (Homo sapiens)", "log10(IC50)": 1.54}
{"Molecule": "CCS(=O)(=O)c1ccc(CC(=O)Nc2cc(-c3cccnc3Oc3ccc(C#N)cc3)cs2)cc1", "Assayed System": "Nuclear receptor ROR-gamma (Homo sapiens)", "log10(IC50)": 2.28}
{"Molecule": "CCS(=O)(=O)c1ccc([C@H](NC(C)=O)C(=O)Nc2cc(-c3cccnc3OCc3ccc(OC(F)(F)F)cc3)cs2)cc1", "Assayed System": "Nuclear receptor ROR-gamma (Homo sapiens)", "log10(IC50)": 1.36}

INPUT: Indicate the recorded log10(IC50) value for this molecule: CCS(=O)(=O)c1ccc(C(N)C(=O)Nc2cc(-c3cc(C#N)cc(F)c3OC)cs2)cc1 (stereo not drawn)
OUTPUT: 3.23

INPUT: Look up log10(IC50) of CCS(=O)(=O)c1ccc(C(NC(C)=O)C(=O)Nc2cc(-c3cc(C#N)cnc3OCC(F)(F)F)cs2)cc1 (stereo not drawn) and report it.
OUTPUT: 1.69

INPUT: Supply measured log10(IC50) of CCS(=O)(=O)c1ccc(CC(=O)Nc2cc(-c3cc(C#N)cc(F)c3OC)cs2)cc1 in your reply.
OUTPUT: 2.85

INPUT: Kindly indicate its recorded log10(IC50). Item: CCS(=O)(=O)c1ccc(CC(=O)Nc2nc(-c3cccc(Cl)c3)c(C(=O)c3ccccc3Cl)s2)cc1
OUTPUT: 2.26

INPUT: Identify measured log10(IC50) corresponding to CCS(=O)(=O)c1ccc(C(NC(C)=O)C(=O)Nc2cc(-c3cccnc3OCc3ccc(OC(F)(F)F)cc3)cs2)cc1 (stereo not drawn)
OUTPUT: 1.51

INPUT: Identify log10(IC50) associated with the molecule CCS(=O)(=O)c1ccc(CC(=O)Nc2cc(-c3cccc(Cl)c3)c(C(=O)c3ccccc3Cl)s2)cc1
OUTPUT: 0.78
